Data credit: the supplement of paper PMC8728848

A collection of binders and their measured glycan array binding signal (z-score)
- assay target: Neu5Ac(a2-3)Gal(b1-4)[Fuc(a1-3)]GlcNAc(b1-2)Man
- test details: glycan array binding signal (z-score within array); higher = stronger binding
- stated conditions: glycan notation: IUPAC condensed, linker removed
Shown is part of a subset that was picked to be rich in the strongest signals.
The answer should be a number; do not append a unit.

Input line: glycan array binding signal (z-score) for Epa3to2 (Candida glabrata) (protein) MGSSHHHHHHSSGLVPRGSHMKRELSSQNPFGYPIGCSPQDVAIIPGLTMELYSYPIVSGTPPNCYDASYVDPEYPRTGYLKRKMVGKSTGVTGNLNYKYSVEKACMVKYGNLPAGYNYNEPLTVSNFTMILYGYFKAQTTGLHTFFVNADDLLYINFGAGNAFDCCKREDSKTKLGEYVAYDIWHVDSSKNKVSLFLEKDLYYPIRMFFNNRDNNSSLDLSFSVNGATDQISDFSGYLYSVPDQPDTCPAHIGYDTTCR ?
Output line: -0.793

Input line: Fill in: glycan array binding signal (z-score) of Pwp1 (Candida glabrata) (protein) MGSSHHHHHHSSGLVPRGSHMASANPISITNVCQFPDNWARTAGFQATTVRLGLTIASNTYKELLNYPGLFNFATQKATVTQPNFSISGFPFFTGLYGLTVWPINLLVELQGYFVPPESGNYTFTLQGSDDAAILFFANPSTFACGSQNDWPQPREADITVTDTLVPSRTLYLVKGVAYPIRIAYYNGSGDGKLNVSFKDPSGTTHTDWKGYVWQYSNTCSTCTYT is ___
Output line: -1.41

Input line: // glycan array binding signal (z-score) lookup, key: CBP21 (Serratia marcescens), O83009 (protein) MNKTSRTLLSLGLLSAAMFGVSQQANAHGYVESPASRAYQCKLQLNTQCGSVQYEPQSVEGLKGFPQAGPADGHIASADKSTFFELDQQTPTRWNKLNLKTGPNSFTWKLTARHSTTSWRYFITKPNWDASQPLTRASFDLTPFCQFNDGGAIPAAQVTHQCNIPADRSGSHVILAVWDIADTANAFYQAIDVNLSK
Output line: -1.42
